Test: Phase I study CXR1002-001: plasma pharmacokinetics (LC-MS/MS)
Type: in vivo, human
Condition: human, plasma, oral, 750 mg, Patient 027, 750 mg, person, plasma, 672 hr (Day 29); read-out: Concentration
Measurement kind: concentration at 672 h (µM)
Give bare numbers, in µM.

[in] Recorded concentration at 672 h of "O=C(O)C(F)(F)C(F)(F)C(F)(F)C(F)(F)C(F)(F)C(F)(F)C(F)(F)F" , please.
[out] 606

---

Test: Phase I study CXR1002-001: plasma pharmacokinetics (LC-MS/MS)
Assay type: in vivo, human
Condition: human, plasma, po, 1200 mg, Patient 038, 1200 mg weekly oral dose, Time 3 hr; read-out: Concentration (plasma level)
Measurement kind: concentration at 3 h (µM)
Give bare numbers, in µM.

[in] Recorded concentration at 3 h of O=C(O)C(F)(F)C(F)(F)C(F)(F)C(F)(F)C(F)(F)C(F)(F)C(F)(F)F [CXR1002] , please.
[out] 314

---

Test: Phase I study CXR1002-001: plasma pharmacokinetics (LC-MS/MS)
Format: in vivo, human
Condition: human, plasma, oral, 1200 mg, Patient 033, 1200 mg, person, plasma, 3 hr; read-out: Concentration
Measurement kind: concentration at 3 h
Give the value; after it, write the unit.

[in] Recorded concentration at 3 h of O=C(O)C(F)(F)C(F)(F)C(F)(F)C(F)(F)C(F)(F)C(F)(F)C(F)(F)F [CXR1002] , please.
[out] 396 µM

---

Test: Phase I study CXR1002-001: plasma pharmacokinetics (LC-MS/MS)
Format: in vivo, human
Condition: human, plasma, oral, 200 mg, Patient 008 Dose 200 mg; 168 hr (Day 8); read-out: Concentration
Measurement kind: concentration at 168 h (µM)
Numbers only, in µM.

[in] Recorded concentration at 168 h of "O=C(O)C(F)(F)C(F)(F)C(F)(F)C(F)(F)C(F)(F)C(F)(F)C(F)(F)F" , please.
[out] 64.6

---

Test: Phase I study CXR1002-001: plasma pharmacokinetics (LC-MS/MS)
Format: in vivo, human
Condition: human, plasma, oral, 600 mg, Patient 021, 600 mg, person, plasma, 844 hr; read-out: Concentration
Measurement kind: concentration at 844 h
Give the value; after it, write the unit.

[in] Recorded concentration at 844 h of "O=C(O)C(F)(F)C(F)(F)C(F)(F)C(F)(F)C(F)(F)C(F)(F)C(F)(F)F" , please.
[out] 981 µM

---

Test: Phase I study CXR1002-001: plasma pharmacokinetics (LC-MS/MS)
Type: in vivo, human
Condition: human, plasma, oral, 200 mg, Patient 008 Dose 200 mg; 840 hr (Day 36); read-out: Concentration
Measurement kind: concentration at 840 h (µM)
Numbers only, in µM.

[in] Recorded concentration at 840 h of O=C(O)C(F)(F)C(F)(F)C(F)(F)C(F)(F)C(F)(F)C(F)(F)C(F)(F)F [CXR1002] , please.
[out] 425

---

Test: Phase I study CXR1002-001: plasma pharmacokinetics (LC-MS/MS)
Format: in vivo, human
Condition: human, plasma, oral, 100 mg, Patient 005 Dose 100 mg; 168 hr (Day 8); read-out: Concentration
Measurement kind: concentration at 168 h (µM)
Answers are plain numbers, in µM.

[in] Recorded concentration at 168 h of O=C(O)C(F)(F)C(F)(F)C(F)(F)C(F)(F)C(F)(F)C(F)(F)C(F)(F)F [CXR1002] , please.
[out] 19
